Each recorded value in this set is attributed to paper PMC10009755.

test_description: log D measurement (HPLC)
Type: physicochemical
reported_conditions: reverse-phase HPLC, pH 7.5, pH 7.5, HPLC method; read-out: logD7.5
metric: chromatographic logD

Solved entries:
>>> print(df.to_string())
                                   compound                metric  measured_result
0  COCC(NC(=O)c1ccccc1)C(=O)Nc1nnc(Cc2ccc([N+](=O)[O-])cc2)s1 (stereo not shown) [Compound 5]  chromatographic logD              2.3
1  O=C(CNC(=O)C1CCCC1)Nc1nnc(Cc2ccc([N+](=O)[O-])cc2)s1 [Compound 2]  chromatographic logD              2.1
2  COC[C@@H](NC(=O)C1(C(F)F)CCCCC1)C(=O)Nc1nnc(Cc2ccc(C#N)cc2)s1 [Compound 16]  chromatographic logD             2.68

(a) COC[C@@H](NC(=O)C1(C)CCCCC1)C(=O)Nc1nnc(Cc2ccc(C#N)cc2)s1 [Compound 11]
(b) COCC(NC(=O)C1CCOCC1)C(=O)Nc1nnc(Cc2ccc([N+](=O)[O-])cc2)s1 (stereo not shown) [Compound 8]
Data request: Of the two listed items, a and b , which carries the larger chromatographic logD figure? Identify your pick by its label.
Data returned: a

(a) CC(C)(O)[C@@H](NC(=O)C1(C(F)(F)F)CCCCC1)C(=O)Nc1nnc(Cc2ccc(C#N)cc2)s1 [Compound 19]
(b) COCC(NC(=O)C(C)C)C(=O)Nc1nnc(Cc2ccc([N+](=O)[O-])cc2)s1 (stereo not shown) [Compound 6]
Data request: Of the two listed items, a and b , which carries the larger chromatographic logD figure? Identify your pick by its label.
Data returned: a

(1) COC[C@@H](NC(=O)C1(OC)CCCCC1)C(=O)Nc1nnc(Cc2ccc(C#N)cc2)s1 [Compound 15]
(2) N#Cc1ccc(Cc2nnc(NC(=O)[C@H](NC(=O)C3(C(F)(F)F)CCCCC3)C3CCCC3)s2)cc1 [Compound 20]
Data request: Of the two listed items, 1 and 2 , which carries the larger chromatographic logD figure? Identify your pick by its label.
Data returned: 2
